Recorded EC50, one value per entry.
target: recombinant hSIRPa (Sino Biologicals, reference 11612-H08H) (human) (UniProt P78324); experiment: ELISA, hSIRPa (Sino 11612-H08H) coated at 0.5 ug/ml, anti-human IgG detection; second experiment
Sequence (P78324 31-370): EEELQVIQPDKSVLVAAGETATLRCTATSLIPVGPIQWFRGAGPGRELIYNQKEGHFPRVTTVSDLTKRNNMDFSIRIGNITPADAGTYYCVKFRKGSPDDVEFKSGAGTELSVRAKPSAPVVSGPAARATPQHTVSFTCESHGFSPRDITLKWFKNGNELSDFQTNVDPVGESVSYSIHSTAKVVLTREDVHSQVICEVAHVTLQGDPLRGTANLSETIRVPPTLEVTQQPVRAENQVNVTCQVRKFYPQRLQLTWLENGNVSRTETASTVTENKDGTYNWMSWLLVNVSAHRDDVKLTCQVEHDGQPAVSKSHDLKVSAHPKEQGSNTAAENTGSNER
Form entry: value (ng/mL) — number only.

[
  {
    "binder": "HCLA (antibody, human IgG4 S228P, kappa, V domains shown) VH: EVQLVQSGAEVKKPGESLRISCKASGYSFTSYWVHWVRQMPGKGLEWMGNIDPSDSDTHYSPSFQGHVTLSVDKSISTAYLQLSSLKASDTAMYYCVRGGTGTMAWFAYWGQGTLVTVSS VL: DVVMTQSPLSLPVTLGQPASISCRSSQSLVHSYGNTYLYWYQQRPGQSPRLLIYRVSNRFSGVPDRFSGSGSGTDFTLKISRVEAEDVGVYFCFQGTHVPYTFGGGTKVEIKR",
    "readingUnit": "ng/mL",
    "EC50": 5.6
  }
]

HELA (antibody, human IgG4 S228P, kappa, V domains shown) VH: EVQLVQSGAEVKKPGESLRISCKASGYSFTSYWVHWVRQMPGKGLEWMGNIDPSDSDTHYSPSFQGHVTLSVDKSISTAYLQLSSLKASDTAMYYCVRGGTGTLAWFAYWGQGTLVTVSS VL: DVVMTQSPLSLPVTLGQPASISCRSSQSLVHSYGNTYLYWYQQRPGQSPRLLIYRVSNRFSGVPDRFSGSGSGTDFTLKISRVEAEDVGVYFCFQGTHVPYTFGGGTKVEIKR has a reported EC50 of 4.61

HCLB (antibody, human IgG4 S228P, kappa, V domains shown) VH: EVQLVQSGAEVKKPGESLRISCKASGYSFTSYWVHWVRQMPGKGLEWMGNIDPSDSDTHYSPSFQGHVTLSVDKSISTAYLQLSSLKASDTAMYYCVRGGTGTMAWFAYWGQGTLVTVSS VL: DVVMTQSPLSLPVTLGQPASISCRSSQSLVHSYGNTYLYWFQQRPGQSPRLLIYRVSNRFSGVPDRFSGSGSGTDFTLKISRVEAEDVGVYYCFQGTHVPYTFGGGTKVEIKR has a reported EC50 of 5.59

HELB (antibody, human IgG4 S228P, kappa, V domains shown) VH: EVQLVQSGAEVKKPGESLRISCKASGYSFTSYWVHWVRQMPGKGLEWMGNIDPSDSDTHYSPSFQGHVTLSVDKSISTAYLQLSSLKASDTAMYYCVRGGTGTLAWFAYWGQGTLVTVSS VL: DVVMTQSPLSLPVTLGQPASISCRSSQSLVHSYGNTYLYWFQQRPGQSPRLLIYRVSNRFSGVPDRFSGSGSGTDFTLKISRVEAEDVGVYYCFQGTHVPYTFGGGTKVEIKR has a reported EC50 of 4.13
